testSystem: E. coli RNase P holoenzyme (M1 P RNA + rnpA protein)
Sequence: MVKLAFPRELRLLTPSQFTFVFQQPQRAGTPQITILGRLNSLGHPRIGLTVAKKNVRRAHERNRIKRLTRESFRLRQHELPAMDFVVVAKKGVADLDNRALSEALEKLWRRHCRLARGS
measurementProtocol: relative kcat/Km (krel) vs genomic leader AAAGAU (relative (reference leader = 1)); higher = faster RNase P cleavage
conditionContext: fraction of substrate reacted: ~9-10% (9.79% repeat 1, 9.1% repeat 2)
Over roughly 4,100 sequences, “relative kcat/Km (krel) vs genomic leader AAAGAU” has its median near 1.7; the highest 2% begin near 6.5. The list comes from a sample in which the highest values are over-represented; it also holds close analogues and randomly drawn sequences.
quantityMeasured: relative kcat/Km

Some solved cases for reference:
[[record]]
macromoleculesequence = "ATACGT"
quantitymeasured = "relative kcat/Km"
recordedvalue = 0.722

[[record]]
macromoleculesequence = "TGAGGA"
quantitymeasured = "relative kcat/Km"
recordedvalue = 0.562

[[record]]
macromoleculesequence = "GTGCCC"
quantitymeasured = "relative kcat/Km"
recordedvalue = 1.01

[[record]]
macromoleculesequence = "GGCTAT"
quantitymeasured = "relative kcat/Km"
recordedvalue = 2.25

[[record]]
macromoleculesequence = "ATCGCC"
quantitymeasured = "relative kcat/Km"
recordedvalue = 4.35


Now consider a different sequence.
Reported relative kcat/Km for GTCTAT was 5.93

Where do these numbers come from? They come from the supplement of paper PMC9433436.
